- assay-explanation: In vivo mouse PK
- condition-label: plasma; mouse (female Balb/C), 5 mg kg^–1; read-out: volume of distribution

{"molecule": "Cc1nn(C)cc1-c1nc2c(Oc3ccc(C(=O)Nc4ccccc4)cc3)c(Cl)cnc2[nH]1 [compound 28c]", "Vd (L)": 0.036}
